# System Tested: Androgen Receptor (Homo sapiens, UniProt P10275)
# Construct: endogenous in cells; host or cells: VCaP cells
# Sequence (P10275 whole entry): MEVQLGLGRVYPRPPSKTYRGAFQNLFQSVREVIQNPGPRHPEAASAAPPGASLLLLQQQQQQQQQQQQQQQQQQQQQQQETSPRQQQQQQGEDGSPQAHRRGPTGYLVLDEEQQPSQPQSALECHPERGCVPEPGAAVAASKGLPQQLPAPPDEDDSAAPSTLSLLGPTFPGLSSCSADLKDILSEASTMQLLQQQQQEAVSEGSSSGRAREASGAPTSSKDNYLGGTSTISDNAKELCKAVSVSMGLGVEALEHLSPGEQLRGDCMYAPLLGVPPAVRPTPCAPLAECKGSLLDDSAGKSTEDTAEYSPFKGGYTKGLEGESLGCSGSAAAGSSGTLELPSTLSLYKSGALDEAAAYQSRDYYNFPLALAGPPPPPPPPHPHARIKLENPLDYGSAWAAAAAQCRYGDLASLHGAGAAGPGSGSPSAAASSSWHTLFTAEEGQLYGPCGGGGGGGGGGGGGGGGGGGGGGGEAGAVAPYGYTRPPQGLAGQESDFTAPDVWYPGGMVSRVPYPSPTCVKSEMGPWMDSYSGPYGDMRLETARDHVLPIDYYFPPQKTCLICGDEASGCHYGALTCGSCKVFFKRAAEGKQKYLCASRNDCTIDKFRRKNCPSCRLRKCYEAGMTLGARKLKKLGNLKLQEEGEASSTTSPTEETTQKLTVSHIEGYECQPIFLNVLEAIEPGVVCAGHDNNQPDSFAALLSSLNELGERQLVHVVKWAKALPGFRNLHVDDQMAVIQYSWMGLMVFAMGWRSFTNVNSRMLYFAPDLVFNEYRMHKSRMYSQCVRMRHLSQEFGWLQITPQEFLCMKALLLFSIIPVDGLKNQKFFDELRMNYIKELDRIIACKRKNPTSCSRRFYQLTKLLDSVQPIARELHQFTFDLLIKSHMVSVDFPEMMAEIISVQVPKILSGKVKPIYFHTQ
# Protocol: Androgen Receptor ELISA assay (PathScan AR ELISA) in VCaP cells: AR degradation, Dmax and DC50
# Type: cell-based
# Protocol Conditions: VCaP, VCaP cells; Table 36; read-out: VCaP Dmax (%)
What Dmax was measured for each of the following?

Report Dmax for Cc1ncsc1-c1ccc([C@H](C)NC(=O)[C@@H]2C[C@@H](O)CN2C(=O)[C@H](c2cc(N3CCN(CCCc4ccc(C(=O)N[C@H]5C(C)(C)[C@H](Oc6ccc(C#N)c(Cl)c6)C5(C)C)cc4)CC3)no2)C(C)C)cc1
26 to 50%

Answer with the recorded Dmax for the compound listed here: CO[C@@H]1C[C@@H](C(=O)N(C)Cc2ccc(-c3scnc3C)cc2)N(C(=O)[C@@H](N(C)C(=O)COCCCCCN(C)c2ccc(C(=O)N(C)[C@H]3C(C)(C)[C@H](Oc4ccc(C#N)c(C(F)(F)F)c4)C3(C)C)nc2)C(C)(C)C)C1
< 25%

Report measured Dmax; entry is Cc1ncsc1-c1ccc([C@H](C)NC(=O)[C@@H]2C[C@@H](O)CN2C(=O)[C@@H](NC(=O)CO[C@H]2C[C@@H](N3CCN(c4ccc(C(=O)N[C@H]5C(C)(C)[C@H](Oc6ccc(C#N)c(Cl)c6)C5(C)C)cn4)CC3)C2)C(C)(C)C)cc1
> 71%

Give the reported Dmax for this compound. CC(C)C[C@@H](C(=O)N[C@@H](C)C(=O)N1C[C@H](O)C[C@H]1C(=O)N[C@@H](C)c1ccc(Cl)cc1)N1CCN(CCCc2ccc(C(=O)N[C@H]3C(C)(C)[C@H](Oc4ccc(C#N)c(Cl)c4)C3(C)C)cc2)CC1
< 25%

Give a short answer stating reported Dmax for [2H]C(Nc1ccc(C(=O)N[C@H]2C(C)(C)[C@H](Oc3ccc(C#N)c(Cl)c3)C2(C)C)cc1)C([2H])([2H])C([2H])([2H])C([2H])([2H])C([2H])([2H])OCC(=O)N[C@H](C(=O)N1C[C@H](O)C[C@H]1C(=O)N[C@@H](C)c1ccc(-c2scnc2C)cc1)C(C)(C)C (some centres unmarked) .
> 71%

# return recorded Dmax for input Cc1ncsc1-c1ccc([C@H](C)NC(=O)[C@@H]2C[C@@H](O)CN2C(=O)[C@@H](c2ncc(CCCCCNc3ccc(C(=O)N[C@H]4C(C)(C)[C@H](Oc5ccc(C#N)c(Cl)c5)C4(C)C)nc3)n2C)C(C)C)cc1
< 25%

Complete the entry with Dmax for Cc1ncsc1-c1ccc([C@H](C)NC(=O)[C@@H]2C[C@@H](O)CN2C(=O)[C@@H](NC(=O)COCCN2CCN(c3ccc(C(=O)N[C@H]4C[C@H](Oc5ccc(C#N)c(Cl)c5)C4)cn3)CC2)C(C)(C)C)cc1
< 25%

Provide only the value of recorded Dmax for Cc1ncsc1-c1ccc(C(CO)NC(=O)[C@@H]2C[C@@H](O)CN2C(=O)[C@@H](NC(=O)CCCN2CCN(c3ccc(C(=O)N[C@H]4C(C)(C)[C@H](Oc5ccc(C#N)c(Cl)c5)C4(C)C)cn3)CC2)C(C)(C)C)cc1 (some centres unmarked)
26 to 50%

* * *

I'd appreciate it if you could supply AUC(0-t) values for the items below.
# Protocol: PROTAC subcutaneous pharmacokinetics in CD-1 mice
# Format: in vivo
# Protocol Conditions: male, plasma; CD-1 Mouse, 10 mg/kg SC dose, vehicle ESD-1; read-out: Plasma Exposure AUC0-24
# number only, unit ng·h/mL dropped from output

Given the compound CC(C)(C)[C@H](NC(=O)COCCCCCOc1ccc(C(=O)N[C@H]2C(C)(C)[C@H](Oc3ccc(C#N)c(Cl)c3)C2(C)C)cc1)C(=O)N1C[C@H](O)C[C@H]1C(=O)NCc1ccc(-c2cncs2)cc1 [Example 150] , write its reported AUC(0-t).
40200

Tell us which AUC(0-t) value is on record for Cc1ncsc1-c1ccc(CNC(=O)[C@@H]2C[C@@H](O)CN2C(=O)[C@@H](NC(=O)COCCCOCCCCCOc2ccc(N3C(=S)N(c4ccc(C#N)c(C(F)(F)F)c4)C(=O)C3(C)C)cc2)C(C)(C)C)cc1 [Example 1]
15600

Supply AUC(0-t) value. Item: Cc1ncsc1-c1ccc([C@H](C)NC(=O)[C@@H]2C[C@@H](O)CN2C(=O)[C@@H](NC(=O)COCCCCCNc2ccc(C(=O)N[C@H]3C(C)(C)[C@H](Oc4ccc(C#N)c(Cl)c4)C3(C)C)cc2)C(C)(C)C)cc1 [Example 174]
35100
